Measurement target: haematopoietic prostaglandin D synthase (H-PGDS) (Homo sapiens)
Construct: Full length human H-PGDS cDNA (Invitrogen Ultimate ORF IOH13026) was amplified by PCR; made in house; host or cells: E. coli BL21 (DE3*), vector pET22b+
Sequence (O60760 whole entry): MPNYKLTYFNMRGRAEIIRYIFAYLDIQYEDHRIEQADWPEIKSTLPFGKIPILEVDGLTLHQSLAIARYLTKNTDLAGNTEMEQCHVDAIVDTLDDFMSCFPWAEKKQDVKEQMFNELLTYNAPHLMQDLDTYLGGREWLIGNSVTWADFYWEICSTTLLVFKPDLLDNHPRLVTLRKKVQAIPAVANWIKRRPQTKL
Assay name: H-PGDS RapidFire High Throughput Mass Spectrometry Assay
Format: biochemical
Measurement conditions: H-PGDS RapidFire MS assay, mean pIC50; read-out: Potency Range (mean pIC50) (converted)
Source text: The H-PGDS RapidFire™ mass spectrometric assay monitors conversion of prostaglandin H2 (PGH2) to prostaglandin D2 (PGD2) by haematopoietic prostaglandin D synthase (H-PGDS). […] Plates are then read on the RapidFire™ high throughput solid phase extraction system (Agilent) which incorporates a solid phase extraction step coupled to a triple quadrupole mass spectrometer (AB SCIEX). […]
Test readout: IC50

O=C(N[C@H]1CC[C@H](N[C@H](CO)C(F)(F)F)CC1)c1cnc2cc(OC(F)F)c(F)cc2c1
10 to 79.4 nM
O=C1CC(NC(=O)c2cnc3cc(OC(F)F)c(Cl)cc3c2)C1
10 to 79.4 nM
C=Cc1cc2ncc(C(=O)N[C@H]3CC[C@H](C(C)(C)O)CC3)cc2cc1Cl
10 to 79.4 nM
CCc1cccc2cc(C(=O)Nc3nccs3)cnc12
100 to 1000 nM

As a next step, examine the compound that follows.
Input: Requested read-out: IC50. Entry: CN(C)c1cc2ncc(C(=O)N[C@H]3CC[C@H](C(C)(C)O)CC3)cc2cc1F
Output: < 10 nM
